List of INHIBITION values.
Tested on: Plasmodium berghei
MEASUREMENT NOTES: Screen against P. berghei liver stage (PbLuc), transformed with Luciferase, at 2uM
Format: functional, HepG2
MEASUREMENT SETUP: tested at 2 uM
The whole screen tested about 68,000 compounds, of which about 2,700 (4%) showed an effect of 50% or more. This excerpt belongs to a sample that is enriched for strong results.
Units required after the number.

Worked examples follow.
compound="Cn1cc(CN2CCCC(CCc3c(F)cccc3F)C2)cn1 (configuration not stated)" observed_property=INHIBITION result=43.27%
compound="O=C1CCC2(CCCN(C(=O)Cc3cccnc3)C2)N1 (configuration not stated)" observed_property=INHIBITION result=29.3%
compound=Cc1ccc(CN(CCCn2ccnc2)Cc2cccs2)s1 observed_property=INHIBITION result=32.53%

[ask] // returns reported INHIBITION for input Cc1nn(C)c(C)c1C(=O)NCc1ccnc(OCC(F)(F)F)c1
[reply] 11.09%

[ask] Endpoint output: INHIBITION of CC(C)c1nn(C)c(N(C)C)c1CNCc1cccc(CN(C)C)c1 . Value?
[reply] -36.7%

---

Tested on: Plasmodium berghei
MEASUREMENT NOTES: Screen against P. berghei liver stage (PbLuc), transformed with Luciferase, at 2uM
Type: functional, HepG2
MEASUREMENT SETUP: tested at 2 uM
Out of some 68,000 compounds screened, about 2,700 (4%) showed an effect of 50% or more. The sample holds strong results, similar compounds and a random draw of the others, so the mix is not that of the screen.
Reported INHIBITION values for the following compounds.
Express it in %; write the number only.

Example cases with answers are listed next.
compound=CC(C)(CCS(C)(=O)=O)CNc1ccc2ccc(F)cc2n1 study_system="Plasmodium berghei" observed_property=INHIBITION result_number=50.93
compound="Cn1c(C2CCCN2C(=O)CN2CSCC2=O)nc2ccccc21 (centres undefined)" study_system="Plasmodium berghei" observed_property=INHIBITION result_number=-73.81
compound=Cc1csc(C2(NCc3csc(C4CC4)n3)CCCC2)n1 study_system="Plasmodium berghei" observed_property=INHIBITION result_number=-9.69

Now consider the entry below.
[ask] Form field: reported INHIBITION of Cc1cc(C)c(CNC(=O)Cc2ccc3c(c2)CCCC3)c(=O)[nH]1
[reply] 4.18

---

Test system: Plasmodium berghei
MEASUREMENT NOTES: Screen against P. berghei liver stage (PbLuc), transformed with Luciferase, at 2uM
Assay type: functional, HepG2
MEASUREMENT SETUP: tested at 2 uM
The campaign covered roughly 68,000 compounds. About 2,700 (4%) showed an effect of 50% or more. What follows is part of a selection rich in strong results, with near analogues and random picks from the rest.
The molecules listed here are annotated with their INHIBITION.
Record the value in %, omitting the unit from your answer.

molecule=O=C(NCc1ccc(Br)c(F)c1)Nc1cn[nH]c1 observed_property=INHIBITION result_number=2.31
molecule=COCCCN(C)C(=O)c1cccc(Nc2cnccn2)c1 observed_property=INHIBITION result_number=-5.53

[ask] Query: INHIBITION; subject: Fc1ccc(C2CN(CCc3ccncc3)CCO2)cc1 (configuration not stated)
[reply] 13.26

[ask] Given NC(=O)c1ccc2c(c1)nc1n2CCN(Cc2cccnc2)C1 , state its recorded INHIBITION.
[reply] 8.41

[ask] Return reported INHIBITION; argument: CC(C)=CCS(=O)(=O)Cc1ccn(-c2cccc(F)c2)n1
[reply] 58.14

[ask] Consider the molecule shown here: CCS(=O)(=O)Cc1ccn(-c2cccc(F)c2)n1 What is its recorded INHIBITION?
[reply] 6.82

[ask] Recorded INHIBITION of Cc1cc(C(=O)N2CCCC(c3ccc(C(=O)O)cc3)C2)c(C)o1 (configuration not stated) , please.
[reply] -56.9

[ask] Any idea what INHIBITION was measured for COc1ccccc1CN(CC1CCCO1)C(=O)c1scnc1C (configuration not stated) ?
[reply] 21.54

[ask] Look up INHIBITION: COc1ncccc1NC(=O)N1CCC(c2ccc(O)cc2)CC1
[reply] -14.28
